# method-summary: Inhibition of rat serum BuChE using butyrylthiocholine iodide as substrate measured after 15 mins by Ellman's method
pIC50: −log10 of the molar value.
experimental-endpoint: pIC50

INSERT INTO results (compound, experimental_endpoint, quantitative_result) VALUES
  ('COc1cc2c(cc1OC)C(=O)C(CC1CCN(Cc3ccccc3)CC1)C2 (stereo unspecified) [DONEPEZIL]', 'pIC50', 4.67);

====

Reported pIC50 by item:
# tested-system: Acetylcholinesterase (Electrophorus electricus, UniProt O42275)
# Sequence (O42275 whole entry): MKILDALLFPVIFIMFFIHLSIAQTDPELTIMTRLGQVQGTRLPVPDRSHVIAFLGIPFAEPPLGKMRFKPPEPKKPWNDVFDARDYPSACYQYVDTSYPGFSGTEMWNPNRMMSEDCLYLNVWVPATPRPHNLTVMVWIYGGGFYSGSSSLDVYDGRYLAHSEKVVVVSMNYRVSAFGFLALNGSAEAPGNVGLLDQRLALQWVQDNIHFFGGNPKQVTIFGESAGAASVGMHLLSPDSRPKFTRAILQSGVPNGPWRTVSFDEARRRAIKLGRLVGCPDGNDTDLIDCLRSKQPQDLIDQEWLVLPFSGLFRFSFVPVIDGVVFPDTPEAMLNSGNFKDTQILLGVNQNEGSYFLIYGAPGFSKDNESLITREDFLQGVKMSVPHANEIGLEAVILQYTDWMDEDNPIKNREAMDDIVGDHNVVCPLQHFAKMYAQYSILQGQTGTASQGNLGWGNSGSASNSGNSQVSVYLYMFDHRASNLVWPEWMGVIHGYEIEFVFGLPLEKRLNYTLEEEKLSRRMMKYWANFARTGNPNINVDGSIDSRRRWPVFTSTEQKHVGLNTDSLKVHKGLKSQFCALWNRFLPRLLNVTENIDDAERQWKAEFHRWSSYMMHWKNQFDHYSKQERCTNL
pIC50: −log10 of the molar value.
experimental-endpoint: pIC50

INSERT INTO results (molecule, tested_system, experimental_endpoint, quantitative_result) VALUES
  ('COc1cc2s[nH]c(=O)c2cc1OC', 'Acetylcholinesterase (Electrophorus electricus, UniProt O42275)', 'pIC50', 4.46),
  ('CCN(CCCn1sc2cc(OC)c(OC)cc2c1=O)Cc1ccccc1OC', 'Acetylcholinesterase (Electrophorus electricus, UniProt O42275)', 'pIC50', 5.08),
  ('COc1ccccc1CN(C)CCCCCCn1c(=O)c2cc(OC)c(OC)cc2[s+]1[O-] (stereo unspecified)', 'Acetylcholinesterase (Electrophorus electricus, UniProt O42275)', 'pIC50', 6.10),
  ('CCN(CCCn1sc2cc(OC)c(OC)cc2c1=O)Cc1ccccc1', 'Acetylcholinesterase (Electrophorus electricus, UniProt O42275)', 'pIC50', 5.18),
  ('CCN(CCCCn1sc2cc(OC)c(OC)cc2c1=O)Cc1ccc(N(C)C)cc1', 'Acetylcholinesterase (Electrophorus electricus, UniProt O42275)', 'pIC50', 5.05),
  ('CCN(CCCCCCn1sc2cc(OC)c(OC)cc2c1=O)Cc1ccc(N(C)C)cc1', 'Acetylcholinesterase (Electrophorus electricus, UniProt O42275)', 'pIC50', 5.19);
